test: Antibiotic concentrations in porcine oral fluid after intramuscular application (UHPLC-MS/MS); format: in vivo; details: male, (Landrace × Yorkshire) × Duroc crossbred (DanBred sows), pig, intramuscular; oral fluid, pigs, i.m., time 25 d, posttreatment; read-out: Avarage Concentrations in oral fluid
RECORDED_ENDPOINT: concentration at 25 d (ng/mL)

> print(dat)
                                   molecule      recorded.endpoint  test.result
1  COc1cc(Cc2cnc(N)nc2N)cc(OC)c1OC [TRMP, trimethoprim]  concentration at 25 d         17.8

[P] COc1ncnc(NS(=O)(=O)c2ccc(N)cc2)c1OC [SDX, sulfadoxine]
[Q] C=C[C@]1(C)C[C@@H](OC(=O)CSCCN(CC)CC)[C@]2(C)[C@H](C)CC[C@]3(CCC(=O)[C@H]32)[C@@H](C)[C@@H]1O [TIAM, tiamulin]
Qu. Please tell me which of the two, P or Q , has the higher reported concentration at 25 d value. Identify your pick by its label.
Ans. Q
